Test system: Acinetobacter baumannii ATCC 17978
test_description: Serum MIC, broth micro-dilution
Assay type: cell-based
test_settings: Acinetobacter baumannii, ATCC17978, 22 h, read-out: Acinetobacter baumanii 17978 Serum MIC
reported_property: MIC (µM)
Answers are plain numbers, in µM.

- mol_smiles: "C[C@@H]1NC(=O)[C@@H](N(C)C(=O)[C@H](CCN)NC(=O)c2cnn(-c3ccc(C(C)(C)C)cc3)c(=O)c2)c2cc(OC[C@H](O)CN)c(O)c(c2)-c2cc(ccc2OC[C@H](O)CN)C[C@@H](C(=O)O)NC1=O"
  MIC, µM: 16
- mol_smiles: "Cc1nc(-c2ccc(C(C)(C)C)cc2)nc(C)c1C(=O)N[C@@H](CCN)C(=O)N(C)[C@@H]1C(=O)N[C@@H](C)C(=O)N[C@H](C(=O)O)Cc2ccc(OC[C@H](O)CN)c(c2)-c2cc1cc(OC[C@H](O)CN)c2O"
  MIC, µM: 16
- mol_smiles: "C[C@@H]1NC(=O)[C@@H](N(C)C(=O)[C@H](CNS(N)(=O)=O)NC(=O)c2cnn(-c3ccc(C(C)(C)C)cc3)c(=O)c2)c2cc(OC[C@H](O)CN)c(O)c(c2)-c2cc(ccc2OC[C@H](O)CN)C[C@@H](C(=O)O)NC1=O"
  MIC, µM: 24

Working through the 3 compounds below one at a time, give MIC for each.
1. Cc1nc(-c2ccc(OC(C)C)cc2)nc(C)c1C(=O)N[C@@H](CNS(N)(=O)=O)C(=O)N(C)[C@@H]1C(=O)N[C@@H](C)C(=O)N[C@H](C(=O)O)Cc2ccc(OC[C@H](O)CN)c(c2)-c2cc1cc(OC[C@H](O)CN)c2O
2. Cc1nc(-c2ccc(OCCC(C)(C)C)cc2)nc(N)c1C(=O)N[C@@H](CCN)C(=O)N(C)[C@@H]1C(=O)N[C@@H](C)C(=O)N[C@H](C(=O)O)Cc2ccc(OC[C@H](O)CN)c(c2)-c2cc1cc(OC[C@H](O)CN)c2O
3. Cc1nc(-c2ccc(OCCC(C)(C)C)cc2)ncc1C(=O)N[C@@H](CNS(N)(=O)=O)C(=O)N(C)[C@@H]1C(=O)N[C@@H](C)C(=O)N[C@H](C(=O)O)Cc2ccc(OC[C@H](O)CN)c(c2)-c2cc1cc(OC[C@H](O)CN)c2O

32
8
12

The following compounds each have a reported value; give each one's MIC.
1. Cc1nc(-c2ccc(OC(C)C)cc2)ncc1C(=O)N[C@@H](CNS(N)(=O)=O)C(=O)N(C)[C@@H]1C(=O)N[C@@H](C)C(=O)N[C@H](C(=O)O)Cc2ccc(OC[C@H](O)CN)c(c2)-c2cc1cc(OC[C@H](O)CN)c2O
2. Cc1nc(-c2ccc(OC(C)C)cc2)ncc1C(=O)N[C@@H](CCN)C(=O)N(C)[C@@H]1C(=O)N[C@@H](C)C(=O)N[C@H](C(=O)O)Cc2ccc(OC[C@H](O)CN)c(c2)-c2cc1cc(OC[C@H](O)CN)c2O
3. C[C@@H]1NC(=O)[C@@H](N(C)C(=O)[C@H](CNS(N)(=O)=O)NC(=O)c2ncc(-c3ccc(C(C)(C)C)cc3)nc2N)c2cc(OC[C@H](O)CN)c(O)c(c2)-c2cc(ccc2OC[C@H](O)CN)C[C@@H](C(=O)O)NC1=O

[32, 16, 16]
